biological target: recombinant pentameric gH complex (Towne strain) (human cytomegalovirus, Towne strain) (UniProt P17176); test: BLI competition on His-pentamer; competitor (antibody 2): 324.4
Sequence (P17176 30-715, one chain of several): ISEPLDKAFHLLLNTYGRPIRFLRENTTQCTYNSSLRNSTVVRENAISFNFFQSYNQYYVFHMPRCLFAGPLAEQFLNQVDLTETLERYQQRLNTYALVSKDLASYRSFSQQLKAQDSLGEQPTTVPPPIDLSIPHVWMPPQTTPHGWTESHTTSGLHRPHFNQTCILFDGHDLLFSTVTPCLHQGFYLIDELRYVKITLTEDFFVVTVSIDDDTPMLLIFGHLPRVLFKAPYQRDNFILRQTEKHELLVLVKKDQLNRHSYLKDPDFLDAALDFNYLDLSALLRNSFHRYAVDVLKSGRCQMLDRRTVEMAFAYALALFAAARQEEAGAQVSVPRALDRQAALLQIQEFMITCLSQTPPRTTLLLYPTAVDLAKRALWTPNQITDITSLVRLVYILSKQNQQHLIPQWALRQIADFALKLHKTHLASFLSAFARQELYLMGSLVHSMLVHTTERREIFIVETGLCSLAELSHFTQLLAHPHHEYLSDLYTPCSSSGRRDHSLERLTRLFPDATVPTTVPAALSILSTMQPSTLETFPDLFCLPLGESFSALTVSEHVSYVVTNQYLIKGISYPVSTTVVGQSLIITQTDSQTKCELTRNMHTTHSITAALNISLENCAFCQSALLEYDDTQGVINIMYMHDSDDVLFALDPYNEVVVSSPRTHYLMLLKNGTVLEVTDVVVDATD
measured.property: Pair-wise inhibition (%)
Hi! Could you send only the number? It should be in %, unit omitted.

Entry 3-7 (antibody, V domains shown) VH: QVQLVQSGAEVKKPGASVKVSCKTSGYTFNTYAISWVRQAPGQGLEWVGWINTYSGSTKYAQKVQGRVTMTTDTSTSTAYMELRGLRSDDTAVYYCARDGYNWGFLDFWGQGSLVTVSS VL: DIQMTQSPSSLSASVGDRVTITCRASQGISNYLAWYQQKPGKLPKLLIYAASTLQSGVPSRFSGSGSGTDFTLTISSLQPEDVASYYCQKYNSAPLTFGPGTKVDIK , Pair-wise inhibition (%) reported as 14
